Test system: Trichophyton mentagrophytes 445
assay explanation: In vitro antifungal susceptibility testing (broth microdilution)
Format: cell-based
experimental conditions: 72h, M38-A for moulds, IC50 value, read-out: MIC TM
measured property: MIC

CC(C)[C@@H](NC(=O)c1cc(Cl)ccc1O)C(=O)Nc1ccc(Br)cc1 ... > 125 µM
O=C(N[C@H](Cc1ccccc1)C(=O)Nc1ccc(Cl)cc1)c1ccc(Cl)cc1O ... > 125 µM

Quick one: MIC of CC(C)[C@H](NC(=O)c1cc(Cl)ccc1O)C(=O)Nc1ccc(Cl)c(Cl)c1 ?
> 125 µM

Would you kindly repeat that for O=C(N[C@@H](Cc1ccccc1)C(=O)Nc1ccc(Br)cc1)c1cc(Cl)ccc1O ?
500 µM

Would you kindly repeat that for O=C(CNC(=O)c1cc(Cl)ccc1O)Nc1cccc(Cl)c1 ?
125 µM

Would you kindly repeat that for C[C@@H](NC(=O)c1cc(Cl)ccc1O)C(=O)Nc1ccc(Cl)cc1 ?
> 125 µM

Would you kindly repeat that for CC(C)[C@@H](NC(=O)c1cc(Cl)ccc1O)C(=O)Nc1cccc(Cl)c1 ?
125 µM

Would you kindly repeat that for CC(C)[C@H](NC(=O)c1cc(Cl)ccc1O)C(=O)Nc1ccc(Br)cc1 ?
> 125 µM

Would you kindly repeat that for C[C@H](NC(=O)c1cc(Cl)ccc1O)C(=O)Nc1ccc(Cl)c(Cl)c1 ?
> 125 µM

Would you kindly repeat that for C[C@H](NC(=O)c1cc(Cl)ccc1O)C(=O)Nc1cccc(Cl)c1 ?
125 µM

Would you kindly repeat that for CC(C)[C@H](NC(=O)c1cc(Cl)ccc1O)C(=O)Nc1cccc(Cl)c1 ?
> 125 µM

* * *

Test system: photosynthetic electron transport (PET) in spinach chloroplasts
assay explanation: Inhibition of photosynthetic electron transport (PET) in spinach chloroplasts
Format: biochemical, Spinacia oleracea L.
experimental conditions: DCPIP photoreduction
Protocol: Chloroplasts were prepared from spinach (Spinacia oleracea L.) according to Masarovicova and Kralova. The inhibition of photosynthetic electron transport (PET) in spinach chloroplasts was determined spectrophotometrically (Genesys 6, Thermo Scientific, USA), using an artificial electron acceptor 2,6-dichlorophenol-indophenol (DCIPP) according to Kralova et al., and the rate of photosynthetic electron transport was monitored as a photoreduction of DCPIP. […]
measured property: IC50 (µM)
Express it in µM; write the number only.

Some solved entries appear below for comparison.
Cc1ccc(NC(=O)[C@@H](NC(=O)c2ccc(Cl)cc2O)C(C)C)cc1 [9i] ... 37.3
C[C@H](NC(=O)c1cc(Cl)ccc1O)C(=O)Nc1cccc(Cl)c1 [8b] ... 41.7
O=C(N[C@@H](Cc1ccccc1)C(=O)Nc1ccc(Cl)c(Cl)c1)c1cc(Cl)ccc1O [8q] ... 74.2

Please examine the following record next.
Find the measured IC50: item O=C(CNC(=O)c1cc(Cl)ccc1O)Nc1cccc(Cl)c1 [8a] , target or system photosynthetic electron transport (PET) in spinach chloroplasts.
379

* * *

Tested on: Trichophyton mentagrophytes 445
assay explanation: In vitro antifungal susceptibility testing (broth microdilution)
Assay type: cell-based
experimental conditions: 72h, M38-A for moulds, IC50 value, read-out: MIC TM
Here, each record is paired with measured MIC data.

Some solved entries appear below for comparison.
O=C(CNC(=O)c1cc(Cl)ccc1O)Nc1ccc(Cl)c(Cl)c1 ... > 125 µM
CC(C)[C@@H](NC(=O)c1cc(Cl)ccc1O)C(=O)Nc1ccc(Cl)c(Cl)c1 ... > 125 µM
C[C@H](NC(=O)c1ccc(Cl)cc1O)C(=O)Nc1ccc(Cl)cc1 ... > 250 µM

Please examine the following record next.
Quick one: MIC of O=C(N[C@H](Cc1ccccc1)C(=O)Nc1ccc(Cl)c(Cl)c1)c1cc(Cl)ccc1O ?
> 125 µM

* * *

assay explanation: Lipophilicity determination by RP-HPLC (capacity factor k / log k)
Type: physicochemical
experimental conditions: C18 column, MeOH 70% / H2O 30%, isocratic
measured property: log k
Quick one: just the number, no unit, thanks!

Some solved entries appear below for comparison.
O=C(N[C@@H](Cc1ccccc1)C(=O)Nc1ccc(Cl)cc1)c1ccc(Cl)cc1O ... 0.7540
CC(C)[C@@H](NC(=O)c1cc(Cl)ccc1O)C(=O)Nc1ccc(Br)cc1 ... 0.6646
C[C@@H](NC(=O)c1ccc(Cl)cc1O)C(=O)Nc1ccc(Cl)cc1 ... 0.4921
O=C(N[C@H](Cc1ccccc1)C(=O)Nc1ccc(Cl)cc1)c1ccc(Cl)cc1O ... 0.7479
CC(C)[C@H](NC(=O)c1cc(Cl)ccc1O)C(=O)Nc1ccc(Br)cc1 ... 0.6709

Please examine the following record next.
Quick one: log k of CC(C)[C@@H](NC(=O)c1ccc(Cl)cc1O)C(=O)Nc1ccc(Cl)cc1 ?
0.6832
